Recorded TGI values for a group of molecules are listed next.
System: MDA-MB-231 breast
Test: NCI tumour cell line growth inhibition, 48 h

Recorded TGI, per entry:
Molecule: O=c1oc2c/c(=C\c3ccccn3)c(=O)c3cccc1c3-2
Value Measured: > 100 µM

Molecule: COc1ccc(-c2nc3sccn3c2-c2ccnc(NCCCNS(=O)(=O)c3ccc(F)cc3)n2)cc1
Value Measured: > 100 µM

Molecule: CSc1ccc(/C=C2\N=C(c3ccccc3)N(/N=C3\C(=O)Nc4ccccc43)C2=O)cc1
Value Measured: > 100 µM

Molecule: O=C1CSC(c2ccccc2O)N1c1nc2cc3sc(N4C(=O)CSC4c4ccccc4O)nc3cc2s1 (stereo not given)
Value Measured: > 100 µM

[ask] Given the entry N=C1C(c2nc3ccccc3s2)=C(O)CN1c1cc(Cl)cc(Cl)c1 , report its measured TGI.
[reply] > 100 µM

[ask] Given the entry COc1cc(NC(C)CCCN2C(=O)c3ccccc3C2=O)c2ncccc2c1OC (stereo not given) , report its measured TGI.
[reply] > 100 µM
